Test system: Staph aureus 1146
assayInfo: MIC, microtiter broth dilution (CLSI M7-A7), Assay 1, Table 12 column B, no serum
Format: cell-based, Staphylococcus aureus
details: Staphylococcus aureus, 1146, Staph aureus 1146, Assay 1, no serum
quantityMeasured: MIC (µg/mL)

| compound | targetSystem | quantityUnit | reportedRelation | reportedMeasurement |
| --- | --- | --- | --- | --- |
| COc1ccc2ncc(F)c([C@@H](O)CNC3(C(=O)O)CCCN(C4CC(c5ccccc5)C4)CC3)c2c1 (single isomer, unassigned) | Staph aureus 1146 | µg/mL | = | 2 |
| COc1ccc2nccc([C@@H](O)CC[C@@H]3CCN(C4CC(c5ccc(F)cc5F)C4)C[C@@H]3C(=O)O)c2c1 (stereo partly drawn) | Staph aureus 1146 | µg/mL | ≤ | 0.0625 |
| COc1ccc2ncc(F)c(CCCC3(C(=O)O)CCN(C4CC(c5ccccc5)C4)C3)c2c1 (stereo not drawn) | Staph aureus 1146 | µg/mL | < | 0.0625 |
| COc1ccc2nccc([C@@H](O)CC[C@@H]3CCN(C4CC(c5cccc(F)c5)C4)C[C@@H]3C(=O)O)c2c1 (stereo partly drawn) | Staph aureus 1146 | µg/mL | ≤ | 0.0625 |
| COc1ccc2nccc([C@H](O)CC[C@@H]3CCN(C4CC(c5ccccc5F)C4)C[C@@H]3C(=O)O)c2c1 (stereo partly drawn) | Staph aureus 1146 | µg/mL | < | 0.0625 |
| COc1ccc2nccc(C(O)CC[C@@H]3CCN(C4CC(C5CCCCC5)C4)C[C@@H]3C(=O)O)c2c1 (stereo partly drawn) | Staph aureus 1146 | µg/mL | = | 0.25 |
| COc1ccc2nccc(C(CC[C@@H]3CCN(C4CC(c5ccccc5)C4)C[C@@H]3C(=O)O)N3CCC3)c2c1 (stereo partly drawn) | Staph aureus 1146 | µg/mL | = | 64 |
| COc1ccc2nccc(C(O)CC[C@@H]3CCN(C4CC(C5CCOCC5)C4)C[C@@H]3C(=O)O)c2c1 (stereo partly drawn) | Staph aureus 1146 | µg/mL | = | 32 |
| COc1ccc2ncc(Cl)c(CCCC3(C(=O)O)CCN(C4CC(c5ccccc5)C4)CC3O)c2c1 (stereo not drawn) | Staph aureus 1146 | µg/mL | = | 0.5 |
| COc1ccc2nccc(C(O)CC[C@@H]3CCN(C4CC(c5ccccc5C)C4)C[C@@H]3C(=O)O)c2c1 (stereo partly drawn) | Staph aureus 1146 | µg/mL | = | 1 |
| COc1ccc2nccc(C(O)CC[C@@H]3CCN(C4CN(C5CCCCC5)C4)C[C@@H]3C(=O)O)c2c1 (stereo partly drawn) | Staph aureus 1146 | µg/mL | > | 64 |
| COc1ccc2nccc(C(O)CC[C@@H]3CCN(C4CC(c5ccc(C)cc5)C4)C[C@@H]3C(=O)O)c2c1 (stereo partly drawn) | Staph aureus 1146 | µg/mL | = | 1 |
| COc1ccc2nccc([C@@H](O)CC[C@@H]3CCN(C4CC(c5cccc(OC)c5F)C4)C[C@@H]3C(=O)O)c2c1 (stereo partly drawn) | Staph aureus 1146 | µg/mL | = | 32 |
| COc1ccc2nccc(C(O)CC[C@@H]3CCN(C4CC(c5nnc(C)o5)C4)C[C@@H]3C(=O)O)c2c1 (stereo partly drawn) | Staph aureus 1146 | µg/mL | = | 32 |
| COc1ccc2ncc(Cl)c(C(O)CC[C@@H]3CCN(C4CC(c5c(F)cccc5F)C4)C[C@@H]3C(=O)O)c2c1 (stereo partly drawn) | Staph aureus 1146 | µg/mL | < | 0.0625 |
| COc1ccc2ncc(F)c([C@@H](O)CC[C@@H]3CCN(C4CC(=O)N(c5ccccc5)C4)C[C@@H]3C(=O)O)c2c1 (stereo partly drawn) | Staph aureus 1146 | µg/mL | = | 2 |
| COc1ccc2nccc(C(O)CC[C@@H]3CCN(C4CC(c5ccc(C(F)(F)F)cc5)C4)C[C@@H]3C(=O)O)c2c1 (stereo partly drawn) | Staph aureus 1146 | µg/mL | = | 8 |
| COc1ccc2nccc(C(O)CC[C@@H]3CCN(C4CC(c5nc(C(C)C)no5)C4)C[C@@H]3C(=O)O)c2c1 (stereo partly drawn) | Staph aureus 1146 | µg/mL | > | 64 |
